# Test system: MALME-3M melanoma
# test_summary: NCI-60 one-dose screen, 48 h
# setup_conditions: 10 µM unless noted
This is part of a sample that, as a whole, favours compounds with a hit. Of some 83,000 tested, about 20% had one in any assay. Activity calls are given as the source filed them. How the source made its calls: active means growth percent below 10; inactive means the rest.
Return exactly one item of active, inactive

Worked examples, 3 compounds total:
COc1cc(C2CC(c3ccc4c(c3)OCO4)=NN2C(C)=O)cc(OC)c1OC (stereo not given): inactive
Nc1ncnc2c1c(-c1ccc(Oc3ccccc3)cc1)nn2C[C@@H]1SSC[C@@H]1O: active
COc1ccc(CN2CCc3c(Sc4ccccc4)nc(N)nc3C2=O)c(OC)c1: inactive

# lookup: test call for O=[N+]([O-])c1ccc(C(c2ccccc2)c2ccccc2)cc1
inactive

# lookup: test call for COc1cccc(/C=C2\Oc3cc(OCCCN4CCCC4)ccc3C2=O)c1OC
inactive

# lookup: test call for O=C(Nc1cccc(-n2cc(-c3ccncc3)c(-c3ccc(Cl)c(O)c3)n2)c1)Nc1ccc(Cl)c(C(F)(F)F)c1
active

# lookup: test call for CCN(CC)c1ccc(CNc2ccnc3ccccc23)cc1
inactive

# lookup: test call for COc1cc(-c2nn(-c3cccc(NC(=O)c4ccccc4)c3)cc2-c2ccncc2)ccc1Cl
inactive

###

So I've got a bunch of molecules here, and I need their growth values.
# Tested on: RXF 393 renal
# test_summary: NCI-60 one-dose screen, 48 h (100 = growth as untreated, 0 = no growth, -100 = all killed)
# setup_conditions: 10 µM unless noted
The panel holds about 83,000 compounds, 20% with a hit somewhere; the sample as a whole holds those more often.
Answers are plain numbers, in %.

# map each molecule to its growth
1. Cc1ccc(S(=O)(=O)C2=C3C(=C(c4ccccc4)c4ccccc43)CN(S(=O)(=O)c3ccc(C)cc3)C2)cc1
2. Nc1cccc(-c2nc3sccn3c2-c2ccnc(NCCNS(=O)(=O)c3ccc(C(F)(F)F)cc3)n2)c1

[47.1, 48.7]

# map each molecule to its growth
1. O=C(NS(=O)(=O)c1ccccc1)n1cc(-c2ccncc2)c(-c2ccc(Cl)c(O)c2)n1
2. c1coc(CNc2ccnc(Nc3ccc(OCCN4CCCCC4)cc3)n2)c1
3. O=C1/C(=C/c2ccc(Cl)cc2)CN(Cc2cn(CCNc3ccnc4cc(Cl)ccc34)nn2)C/C1=C\c1ccc(Cl)cc1

1. 107
2. 71.3
3. -94.5

###

# System: HCT-116 colon
# test_summary: NCI-60 one-dose screen, 48 h (100 = growth as untreated, 0 = no growth, -100 = all killed)
# setup_conditions: 10 µM unless noted
This is part of a sample that, as a whole, favours compounds with a hit. Of some 83,000 tested, about 20% had one in any assay.
So I've got a bunch of compounds here, and I need their growth values.
Answers are plain numbers, in %.

Please review the following examples before continuing.
c1ccc(-c2nc(N3CCNCC3)c3nc(-c4ccccc4)oc3n2)cc1: -89.4
N#Cc1c(-c2ccccc2)nc(SCC(=O)N2CCN(c3ccccc3)CC2)[nH]c1=O: 92.5
COc1cc(/C=C/C(=O)N2CCN(C(=O)/C=C/c3cc(OC)c(OC)c(OC)c3)CC2)cc(OC)c1OC: 98.3
CC(=O)Nc1scc[n+]1Cc1ccccc1: 102

# map each compound to its growth
1. Cn1ncc2c(Sc3ccc(Cl)cc3)ncnc21
2. COc1ccc(-c2nc(N3CCCC3=O)sc2Br)cc1OC

1: 103; 2: 97.4

Values from PubChem BioAssay (NCI)
